log10 kon listing for selected binders.
# MEASURED_TARGET: wildtype feline IL-31 (Feline_IL31_wildtype) (feline)
# Sequence (chain, as listed by the source limits assumed, form in doubt): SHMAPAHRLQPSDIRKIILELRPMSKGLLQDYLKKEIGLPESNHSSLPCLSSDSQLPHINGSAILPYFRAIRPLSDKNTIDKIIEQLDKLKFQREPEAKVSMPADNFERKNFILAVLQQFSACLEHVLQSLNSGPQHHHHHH
# TEST: SPR (Biacore), immobilised IL-31, 1:1 fit
PROPERTY_NAME: log10 kon (log10 of the value in M⁻¹ s⁻¹)

BINDER: Feline 15H05 1.1 FW1_3 (antibody, V domains shown) VH: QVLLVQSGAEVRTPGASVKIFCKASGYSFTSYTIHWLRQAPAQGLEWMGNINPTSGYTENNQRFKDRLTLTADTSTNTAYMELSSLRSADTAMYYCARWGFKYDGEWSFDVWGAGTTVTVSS VL: DIQMNQSPSSLSASLGDTITVTCRASQGISIWLSWYQQKPGKVPKLLIYKASNLHIGVPPRFSGSGSGTHFTLTITSLQPEDIATYYCLQSQTYPLTFGGGTKLEIK
log10 kon: 5.65

BINDER: Feline 15H05 1.1_FW1_2 (antibody, V domains shown) VH: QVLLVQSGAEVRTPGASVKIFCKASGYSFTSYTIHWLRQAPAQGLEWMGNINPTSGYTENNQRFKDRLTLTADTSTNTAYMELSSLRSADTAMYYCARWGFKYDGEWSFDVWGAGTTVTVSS VL: DIQMNQSPSSLSASLGDTITVTCRASQGISIWLSWYQQKPGNIPKVLINKASNLHIGVPSRFSGSGSGTDFTLTISSLEPEDAATYYCLQSQTYPLTFGGGTKLEIK
log10 kon: 3.88

BINDER: Feline 15H05 2.1 (antibody, V domains shown) VH: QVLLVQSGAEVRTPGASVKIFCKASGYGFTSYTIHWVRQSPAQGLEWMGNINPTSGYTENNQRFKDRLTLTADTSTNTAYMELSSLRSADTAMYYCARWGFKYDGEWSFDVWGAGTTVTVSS VL: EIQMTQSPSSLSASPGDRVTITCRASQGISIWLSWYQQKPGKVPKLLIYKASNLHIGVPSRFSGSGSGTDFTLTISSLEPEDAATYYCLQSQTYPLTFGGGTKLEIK
log10 kon: 5.32

BINDER: Feline 15H05 1.2 (antibody, V domains shown) VH: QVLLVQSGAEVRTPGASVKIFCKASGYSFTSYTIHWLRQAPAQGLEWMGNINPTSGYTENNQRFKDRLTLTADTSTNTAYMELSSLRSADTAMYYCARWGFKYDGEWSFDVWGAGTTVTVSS VL: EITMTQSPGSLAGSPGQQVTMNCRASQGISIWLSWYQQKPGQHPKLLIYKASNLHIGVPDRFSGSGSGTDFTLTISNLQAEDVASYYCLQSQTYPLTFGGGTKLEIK
log10 kon: 4.15

BINDER: Feline 15H05 2.3 (antibody, V domains shown) VH: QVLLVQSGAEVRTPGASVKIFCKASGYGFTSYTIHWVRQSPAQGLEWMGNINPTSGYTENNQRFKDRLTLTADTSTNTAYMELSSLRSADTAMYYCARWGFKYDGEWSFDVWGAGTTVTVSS VL: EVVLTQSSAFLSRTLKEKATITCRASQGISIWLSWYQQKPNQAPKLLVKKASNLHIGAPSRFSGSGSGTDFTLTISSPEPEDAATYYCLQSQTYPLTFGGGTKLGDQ
log10 kon: 5.53
